# reported % inhibition at 0.020 nM; entries follow
target: T1, full length human DLL4 (human, UniProt Q9NR61 27-685); assay: FMAT competition, purified antibody vs Alexa-647 human Notch1/Fc, 293T cells with human DLL4
T1 construct: whole, on cells; also called native DLL4 expressed in HEK293 cells
T1 sequence (Q9NR61 27-685): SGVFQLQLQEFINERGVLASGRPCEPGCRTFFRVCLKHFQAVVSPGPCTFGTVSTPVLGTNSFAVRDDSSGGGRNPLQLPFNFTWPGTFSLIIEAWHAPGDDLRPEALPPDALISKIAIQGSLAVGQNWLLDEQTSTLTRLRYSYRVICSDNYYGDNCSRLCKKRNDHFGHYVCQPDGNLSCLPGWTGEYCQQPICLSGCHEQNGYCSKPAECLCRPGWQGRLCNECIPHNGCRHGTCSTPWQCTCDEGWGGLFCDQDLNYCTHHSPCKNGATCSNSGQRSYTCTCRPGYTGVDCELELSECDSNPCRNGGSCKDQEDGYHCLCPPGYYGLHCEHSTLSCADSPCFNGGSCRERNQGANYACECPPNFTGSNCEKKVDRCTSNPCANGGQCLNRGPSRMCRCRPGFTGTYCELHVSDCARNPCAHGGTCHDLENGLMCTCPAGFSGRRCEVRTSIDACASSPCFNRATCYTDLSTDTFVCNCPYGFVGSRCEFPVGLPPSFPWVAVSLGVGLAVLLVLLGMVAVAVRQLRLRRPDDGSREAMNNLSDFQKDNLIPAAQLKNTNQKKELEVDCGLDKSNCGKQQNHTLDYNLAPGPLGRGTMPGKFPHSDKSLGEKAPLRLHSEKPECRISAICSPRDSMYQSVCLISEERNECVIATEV
quantityName: % inhibition at 0.020 nM (%)

>>> assayvalue("1D4 (antibody, IgG4, V domains shown, Fully human XenoMouse antibody; also used where no isotype is printed) VH: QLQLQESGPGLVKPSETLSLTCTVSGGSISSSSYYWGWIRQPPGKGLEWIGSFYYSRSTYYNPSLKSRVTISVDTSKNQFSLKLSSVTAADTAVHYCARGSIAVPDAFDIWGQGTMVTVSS VL: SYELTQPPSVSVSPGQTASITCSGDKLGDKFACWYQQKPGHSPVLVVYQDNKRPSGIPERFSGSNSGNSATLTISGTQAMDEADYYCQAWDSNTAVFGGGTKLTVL")
7
>>> assayvalue("12A1 (antibody, IgG4, V domains shown, Fully human; also used where no isotype is printed) VH: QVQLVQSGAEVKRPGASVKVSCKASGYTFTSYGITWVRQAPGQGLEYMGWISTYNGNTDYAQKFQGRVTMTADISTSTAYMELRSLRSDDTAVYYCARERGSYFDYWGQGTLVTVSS VL: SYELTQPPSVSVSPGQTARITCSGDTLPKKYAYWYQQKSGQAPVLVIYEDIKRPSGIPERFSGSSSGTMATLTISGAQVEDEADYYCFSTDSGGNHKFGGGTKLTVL")
6
>>> assayvalue("20G8 (antibody, IgG4, V domains shown, Fully human; also used where no isotype is printed) VH: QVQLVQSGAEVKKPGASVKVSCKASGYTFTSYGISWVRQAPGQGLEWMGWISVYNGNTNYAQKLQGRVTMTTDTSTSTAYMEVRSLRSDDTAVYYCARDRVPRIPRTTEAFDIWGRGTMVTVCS VL: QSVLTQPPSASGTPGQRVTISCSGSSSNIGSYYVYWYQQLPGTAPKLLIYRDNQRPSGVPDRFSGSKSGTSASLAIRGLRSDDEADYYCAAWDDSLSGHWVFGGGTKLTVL")
-5
>>> assayvalue("9G8 (antibody, IgG4, V domains shown, Fully human; used for IgG4 rows and where no isotype is printed; also called 9G8 IgG4) VH: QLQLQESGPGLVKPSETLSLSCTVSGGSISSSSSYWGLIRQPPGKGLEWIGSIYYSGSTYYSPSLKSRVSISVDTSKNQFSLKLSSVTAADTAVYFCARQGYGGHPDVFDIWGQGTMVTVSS VL: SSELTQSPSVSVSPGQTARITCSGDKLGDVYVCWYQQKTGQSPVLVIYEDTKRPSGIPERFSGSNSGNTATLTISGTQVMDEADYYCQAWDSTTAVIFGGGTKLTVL")
10
>>> assayvalue("4B3 (antibody, IgG4, V domains shown, Fully human; also used where no isotype is printed) VH: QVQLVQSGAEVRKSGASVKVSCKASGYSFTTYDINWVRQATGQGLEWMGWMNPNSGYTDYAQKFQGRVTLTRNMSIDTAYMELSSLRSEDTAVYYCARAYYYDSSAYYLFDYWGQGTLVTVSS VL: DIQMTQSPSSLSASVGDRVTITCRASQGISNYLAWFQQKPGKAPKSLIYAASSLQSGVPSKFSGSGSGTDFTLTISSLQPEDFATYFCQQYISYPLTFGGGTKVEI")
-1
